- MEASUREMENT PROTOCOL: qHTS for Inhibitors of human tyrosyl-DNA phosphodiesterase 1 (TDP1): qHTS in cells in absence of CPT; further: nearly all actives have a fitted effect of over 55% in size
- ASSAY CONTEXT: DT40 Tdp1-/- hTDP1 cells, no CPT, ATP luminescence, 48 h; series mostly up to 46.2 µM
The campaign covered roughly 420,000 compounds. About 64,000 (15%) were called active. Inconclusive results (about 27%) are left out. The call rests on the fitted dose curve; in most records, active means well fitted inhibition curve with a large enough effect; inconclusive means small, poorly fitted or top-dose-only effect; inactive means flat fitted curve, though single readings scatter. This is one part of a sample in which actives are shown more often than they occur.
Use one of these outcomes when replying: active, inactive

COMPOUND: CCOC(=O)C1CN(C)CCC1=O (centres undefined)
CLASS ASSIGNMENT: inactive
--
COMPOUND: CNC(=O)N(C)c1nnc(C(C)(C)C)s1
CLASS ASSIGNMENT: inactive
--
COMPOUND: CCN(N=Nc1nonc1OC)c1nonc1OC
CLASS ASSIGNMENT: inactive
--
COMPOUND: Cc1cccc(Cn2cccc(C(=O)Nc3ccc4c(c3)OCCO4)c2=O)c1
CLASS ASSIGNMENT: active
--
COMPOUND: CC(=NC1CCN(Cc2ccccc2)CC1)c1c(O)n(C)c(=O)n(C)c1=O
CLASS ASSIGNMENT: inactive

Attention now shifts to the item below.
stdin: Hi team, can someone confirm the assay call for `O=c1[nH]c(O)c(C=Nc2cc(F)cc(F)c2)c(=O)[nH]1` ?
stdout: inactive

====

- MEASUREMENT PROTOCOL: qHTS for Inhibitors of human tyrosyl-DNA phosphodiesterase 1 (TDP1): qHTS in cells in absence of CPT; further: nearly all actives have a fitted effect of over 55% in size; further: potency means the concentration at half of the fitted maximal effect
- ASSAY CONTEXT: DT40 Tdp1-/- hTDP1 cells, no CPT, ATP luminescence, 48 h; series mostly up to 46.2 µM
- Experimental: Human tyrosyl-DNA phosphodiesterase 1 (TDP1) is a novel repair gene, and we propose to use it as a new target for anticancer drug development. […] For the primary screen, Tdp1-/-;hTDP1 cells will be exposed to small molecules in the presence or absence of CPT, and their growth kinetics will be evaluated after 48 hours by measuring ATP activity. […] The hit compounds will then be evaluated in the presence or absence of CPT using Tdp1-/- cells. […]
Hit rate of the full screen: of about 420,000 compounds, about 64,000 (15%) were called active. Roughly 27% stayed inconclusive and do not appear here. This excerpt belongs to a sample that is enriched for actives.
MEASURED ENDPOINT: Potency

COMPOUND: C=C(C)C1(CCCC)C(=O)NC(=S)NC1=O
Potency: inactive
//
COMPOUND: CCOP(=O)(OCC)C(NC(=O)c1ccc(C)cc1)C(Cl)(Cl)Cl (stereo not given)
Potency: inactive
//
COMPOUND: CCNc1nc2[nH]c(=O)c3c(c2s1)OC(N)=C(C#N)C3c1cccs1 (stereo not given)
Potency: inactive
//
COMPOUND: CC(Cc1ccccc1)NC=O (stereo not given)
Potency: inactive
//
COMPOUND: Cc1cccc2c(CCN)c[nH]c12
Potency: inactive

# input for lookup
stdin: So what's the measured Potency for this one? CCOP(=O)(OCC)C(Cc1ccccc1)N=C(c1ccccc1)c1ccccc1 (stereo not given)
stdout: 14.6 µM (active)

====

- MEASUREMENT PROTOCOL: qHTS for Inhibitors of human tyrosyl-DNA phosphodiesterase 1 (TDP1): qHTS in cells in absence of CPT; further: nearly all actives have a fitted effect of over 55% in size
- ASSAY CONTEXT: DT40 Tdp1-/- hTDP1 cells, no CPT, ATP luminescence, 48 h; series mostly up to 46.2 µM
Among all 420,000 compounds or so, about 64,000 (15%) were called active. Inconclusive results (about 27%) are left out. The call rests on the fitted dose curve; in most records, active means well fitted inhibition curve with a large enough effect; inconclusive means small, poorly fitted or top-dose-only effect; inactive means flat fitted curve, though single readings scatter. This excerpt belongs to a sample that is enriched for actives.
Use one of these outcomes when replying: active, inactive

COMPOUND: COP(=O)(OC)C(NC(=O)c1ccc(C)cc1)C(Cl)(Cl)Cl (stereo not drawn)
CLASS ASSIGNMENT: inactive
--
COMPOUND: CC[N+]1(CCOC(=O)C(O)(c2ccccc2)c2ccccc2)CCCCC1
CLASS ASSIGNMENT: inactive

stdin: Hi team, can someone confirm the assay call for `CCn1cc2nc(SCc3ccccc3Cl)n(CCc3ccccc3)c(=O)c2n1` ?
stdout: active

stdin: Hi team, can someone confirm the assay call for `CC/C(=N\NC(=O)c1ccccc1O)c1c(O)n(Cc2ccccc2)c(=O)[nH]c1=O` ?
stdout: inactive

stdin: Hi team, can someone confirm the assay call for `O=[N+]([O-])c1ccc(Cl)c(Cl)c1` ?
stdout: inactive

stdin: Hi team, can someone confirm the assay call for `C=CCSSCC=C` ?
stdout: inactive

stdin: Hi team, can someone confirm the assay call for `OCC#CC[N+]1(CC#Cc2ccccc2)CCCC1` ?
stdout: inactive

stdin: Hi team, can someone confirm the assay call for `CN(c1ccccc1)c1ccc([N+](=O)[O-])c2nonc12` ?
stdout: active

====

- MEASUREMENT PROTOCOL: qHTS for Inhibitors of human tyrosyl-DNA phosphodiesterase 1 (TDP1): qHTS in cells in absence of CPT; further: nearly all actives have a fitted effect of over 55% in size
- ASSAY CONTEXT: DT40 Tdp1-/- hTDP1 cells, no CPT, ATP luminescence, 48 h; series mostly up to 46.2 µM
Hit rate of the full screen: of about 420,000 compounds, about 64,000 (15%) were called active. About 27% were inconclusive and are not listed. Calls come from the whole dose curve; as a rule, active = well fitted inhibition curve with a large enough effect; inconclusive = small, poorly fitted or top-dose-only effect; inactive = flat fitted curve, though single readings scatter. The entries come from a sample that favours actives as a whole.
Use one of these outcomes when replying: y (active), n (inactive)

COMPOUND: COC1=CC=C2[C@H]3Cc4ccc(OC)c5c4[C@@]2(CCN3C)C1O5 (some centres undefined)
CLASS ASSIGNMENT: n
//
COMPOUND: O=S(=O)(O)C(F)(F)C(F)(F)C(F)(F)C(F)(F)F
CLASS ASSIGNMENT: n
//
COMPOUND: CCN1CCN(Cc2cc(OC)c3c(c2)OCO3)CC1
CLASS ASSIGNMENT: n

Attention now shifts to the item below.
stdin: Hi team, can someone confirm the assay call for N#CC1=C(N)Oc2c(c(=O)oc3ccccc23)C1c1ccccc1OC(=O)c1cccs1 (centres undefined) ?
stdout: y
